# TARGET_OR_SYSTEM: Undecaprenyl pyrophosphate synthase (UPPS) (Escherichia coli)
# Sequence (P60472 whole entry): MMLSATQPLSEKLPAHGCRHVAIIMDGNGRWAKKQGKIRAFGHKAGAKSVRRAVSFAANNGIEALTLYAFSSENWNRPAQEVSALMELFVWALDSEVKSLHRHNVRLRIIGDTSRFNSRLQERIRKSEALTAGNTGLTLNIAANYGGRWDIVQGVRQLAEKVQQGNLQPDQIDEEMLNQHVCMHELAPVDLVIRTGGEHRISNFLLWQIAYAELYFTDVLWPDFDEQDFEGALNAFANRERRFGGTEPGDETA
MEASUREMENT_KIND: pIC50
Answers are plain numbers, as −log10 of the molar value.

**Query** What does the record list as pIC50 for O=S(=O)(CS(=O)(=O)Nc1nc2ccc(Cl)cc2s1)Nc1nc2ccc(Cl)cc2s1 [BTB06061] ?
**Result** 4.15

* * *

Entries with reported IC50 on Undecaprenyl pyrophosphate synthase (UPPS) (Helicobacter pylori)
Sequence (P55984 whole entry): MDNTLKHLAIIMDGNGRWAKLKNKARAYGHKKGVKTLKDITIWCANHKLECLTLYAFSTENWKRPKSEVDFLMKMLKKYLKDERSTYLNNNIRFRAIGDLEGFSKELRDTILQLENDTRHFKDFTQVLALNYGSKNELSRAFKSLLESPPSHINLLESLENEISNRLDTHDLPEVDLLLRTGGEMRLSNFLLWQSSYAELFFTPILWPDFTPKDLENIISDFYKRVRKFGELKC
One number for each entry, in µM.

NS(=O)(=O)c1cccc(-c2ccc(C3Nc4ccccc4-c4nc5ccccc5n43)o2)c1 (centres unmarked) [HTS04781] | 362

Then this compound:
**Query** Can you look up IC50 on Undecaprenyl pyrophosphate synthase (UPPS) (Helicobacter pylori) for O=S(=O)(CS(=O)(=O)Nc1nc2ccc(Cl)cc2s1)Nc1nc2ccc(Cl)cc2s1 [BTB06061] ?
**Result** 350
